Biological target: hDGAT2 (Homo sapiens (Human))
Experiment: DGAT2 enzymatic activity assay (triolein formation, LC/MS/MS)
Conditions: read-out: IC50 values for inhibition of DGAT2; membrane prep of Sf-9 cells expressing hDGAT2; 25 μM diolein, 10 μM oleoyl-CoA; room temperature; triolein by LC/MS/MS
pIC50: −log10 of the molar value.
MEASUREMENT_NAME: pIC50

1) COc1cccc(-c2ccc(CNC(=O)C(c3ccc(C(F)(F)F)cc3)C(C)C)c3cnccc23)c1 (centres unmarked) [Example 125] | 5.61
2) COc1cccc(-c2ccc(CNC(=O)C(C)(C)Oc3ccc(C(F)(F)F)cc3)c3cnccc23)c1 [Example 111] | 5.91
3) COc1cccc(-c2ccc(CNC(=O)Cc3cccc(C(F)(F)F)c3)c3cnccc23)c1 [Example 48] | 6.54
4) COc1cccc(-c2ccc(CNC(=O)C3CC3c3ccc(F)cc3)c3cnccc23)c1 (centres unmarked) [Example 102] | 6.75
5) COc1cccc(-c2ccc(CNC(=O)c3cc(Br)cnc3C(F)(F)F)c3cnccc23)c1 [Example 121] | 5.93
6) COc1cccc(-c2ccc(CNC(=O)C(C)c3cccc(F)c3)c3cnccc23)c1 (centres unmarked) [Example 135] | 5.70
7) N#Cc1cccc(-c2ccc(CNC(=O)[C@@H]3C[C@H]3c3ccccc3)c3cnccc23)c1 (relative stereo) [Example 16] | 5.46
8) COc1cccc(-c2ccc(CNC(=O)Cc3csc(-c4ccc(F)cc4)n3)c3cnccc23)c1 [Example 64] | 6.22

###

Biological target: hDGAT2 (Homo sapiens (Human), UniProt Q96PD7)
Sequence (Q96PD7 whole entry): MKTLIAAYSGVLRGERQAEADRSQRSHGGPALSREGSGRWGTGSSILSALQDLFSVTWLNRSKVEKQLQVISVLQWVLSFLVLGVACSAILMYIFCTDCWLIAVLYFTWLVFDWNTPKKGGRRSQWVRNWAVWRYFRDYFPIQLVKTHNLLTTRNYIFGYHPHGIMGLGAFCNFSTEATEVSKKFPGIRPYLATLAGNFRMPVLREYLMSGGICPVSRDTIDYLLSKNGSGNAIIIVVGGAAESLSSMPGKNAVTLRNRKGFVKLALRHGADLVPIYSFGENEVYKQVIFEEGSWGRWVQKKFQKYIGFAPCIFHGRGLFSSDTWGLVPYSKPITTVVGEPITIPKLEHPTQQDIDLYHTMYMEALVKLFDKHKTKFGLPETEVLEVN
Assay: DGAT2 enzymatic activity assay (triolein formation, LC/MS/MS)
Settings: read-out: IC50 values for inhibition of DGAT2; membrane prep of Sf-9 cells expressing hDGAT2; 25 μM diolein, 10 μM oleoyl-CoA; room temperature; triolein by LC/MS/MS
pIC50: −log10 of the molar value.
molecules and their reported pIC50
MEASUREMENT_NAME: pIC50

1. COc1cccc(-c2ccc(CNC(=O)c3cn(Cc4ccccc4)nn3)c3cnccc23)c1 [Example 113] | 5.23
2. COc1cccc(-c2ccc(CNC(=O)c3cnn(Cc4ccccc4)c3)c3cnccc23)c1 [Example 115] | 5.47
3. COc1cccc(-c2ccc(CNC(=O)C(C)c3ccc(C#N)cc3)c3cnccc23)c1 (stereo not drawn) [Example 136] | 6.59
4. COc1ccc([C@H]2C[C@@H]2C(=O)NCc2ccc(-c3cccc(OC)c3)c3ccncc23)cc1 [Example 23] | 5.00
5. COc1cccc(-c2ccc(CNC(=O)c3cnco3)c3cnccc23)c1 [Example 37] | 5.90
6. COc1cccc(-c2ccc(CNC(=O)c3cncc4ccccc34)c3cnccc23)c1 [Example 33] | 5.47
7. COc1cccc(-c2ccc(CNC(=O)C(C)c3ccc(OC(F)(F)F)cc3)c3cnccc23)c1 (stereo not drawn) [Example 137] | 6.32
8. COc1cccc(-c2ccc(CNC(=O)C(C)(C)Oc3ccc(C(F)(F)F)cn3)c3cnccc23)c1 [Example 112] | 5.94
9. COc1cccc(-c2ccc(CNC(=O)c3cncc(-c4ccccc4)c3)c3cnccc23)c1 [Example 129] | 5.52
10. COc1cccc(-c2ccc(CNC(=O)c3ccc(-c4ccc(F)cc4)cc3)c3cnccc23)c1 [Example 86] | 5.85
11. COc1cccc(-c2ccc(CNC(=O)c3ccc(-c4cccc(F)c4)cc3)c3cnccc23)c1 [Example 88] | 5.81
12. O=C(O)CCc1ccc(-c2ccc(CNC(=O)Nc3cccc(Cl)c3Cl)c3cnccc23)cc1 [Example 163] | 5.63
13. COc1cccc(-c2ccc(CNC(=O)c3ccncc3-c3ccccc3)c3cnccc23)c1 [Example 77] | 5.92
14. COc1cccc(-c2ccc(CNC(=O)Cc3cccc(Cl)c3Cl)c3cnccc23)c1 [Example 31] | 6.05
15. COc1cccc(-c2ccc(CNC(=O)C3CC34CCCC4)c3cnccc23)c1 (stereo not drawn) [Example 98] | 5.13
16. COC(=O)c1cccc(-c2ccc(CNC(=O)[C@@H]3C[C@H]3c3ccccc3)c3cnccc23)c1 [Example 3] | 7.08
17. COCCCc1ccc(CNC(=O)Nc2cccc(Cl)c2Cl)c2cnccc12 [Example 159] | 6.32
18. CC(C)(C)OC(=O)N1CCC=C(c2ccc(CNC(=O)Nc3cccc(Cl)c3Cl)c3cnccc23)C1 [Example 165] | 5.37
19. COc1cccc(-c2ccc(CNC(=O)C(F)(F)c3ccc(Br)cn3)c3cnccc23)c1 [Example 116] | 5.09
20. COc1cccc(-c2ccc(CNC(=O)Cc3nc(-c4ccccc4)cs3)c3cnccc23)c1 [Example 89] | 5.65
21. COc1cccc(-c2ccc(CNC(=O)C(C)c3ccc4cc(OC)ccc4c3)c3cnccc23)c1 (stereo not drawn) [Example 143] | 6.71
22. COc1cccc(-c2ccc(CNC(=O)c3cc(C(F)(F)F)n[nH]3)c3cnccc23)c1 [Example 29] | 5.75
23. COc1cccc(-c2ccc(CNC(=O)Cc3ccccc3OC(F)(F)F)c3cnccc23)c1 [Example 61] | 6.12
24. COC(=O)c1cccc(-c2ccc(CNC(=O)c3cc(C(C)(C)C)nn3C)c3cnccc23)c1 [Example 7] | 6.95
25. COc1cccc(-c2ccc(CNC(=O)c3ccc(N4CCCCC4)cc3)c3cnccc23)c1 [Example 84] | 6.01
26. COc1cccc(-c2ccc(CNC(=O)c3nn(C)c(=O)c4ccccc34)c3cnccc23)c1 [Example 43] | 5.81
27. COc1cccc(-c2ccc(CNC(=O)Cc3ccc(C(F)(F)F)cc3)c3ncccc23)c1 [Example 150] | 6.37
28. COc1cccc(-c2ccc(CNC(=O)Cc3ccc(Cl)cc3)c3cnccc23)c1 [Example 47] | 5.86
29. C=C(c1ccccc1)c1ccc(CNC(=O)Nc2cccc(Cl)c2Cl)c2cnccc12 [Example 158] | 6.43
30. COc1cccc(-c2ccc(CNC(=O)CCc3cnn(C)c3)c3cnccc23)c1 [Example 94] | 6.52
31. CNC(=O)c1cccc(-c2ccc(CNC(=O)Nc3cccc(Cl)c3Cl)c3cnccc23)c1 [Example 161] | 5.92
32. COc1cccc(-c2ccc(CNC(=O)CCc3nc(-c4ccccc4)no3)c3cnccc23)c1 [Example 30] | 6.09
33. COc1cccc(-c2ccc(CNC(=O)Nc3cccc(-c4ccccc4)c3)c3cnccc23)c1 [Example 157] | 6.93

###

Molecular target: hDGAT2 (Homo sapiens (Human), UniProt Q96PD7)
Experiment: DGAT2 enzymatic activity assay (triolein formation, LC/MS/MS)
pIC50: −log10 of the molar value.
Rule: met for pIC50 not less than 6, not met for anything less.

1) CC[C@H](C(=O)NCc1ccc(-c2cccc(OC)c2)c2ccncc12)c1ccc(C(F)(F)F)c(F)c1 (racemic) | met
2) COc1cccc(-c2ccc(CNC(=O)c3ccc(-n4cccn4)cc3)c3cnccc23)c1 | not met
3) COc1cccc(-c2ccc(CNC(=O)[C@@H]3COC(c4ccccc4)=N3)c3cnccc23)c1 (racemic) | not met
4) COc1cccc(-c2ccc(CNC(=O)[C@H](C)c3ccc4cc(OC)ccc4c3)c3cnccc23)c1 (racemic) | met
5) COC(=O)c1cccc(-c2ccc(CNC(=O)c3nccc4ccccc34)c3cnccc23)c1 | met

###

Target: hDGAT2 (Homo sapiens (Human), UniProt Q96PD7)
Test: DGAT2 enzymatic activity assay (triolein formation, LC/MS/MS)
Conditions: read-out: IC50 values for inhibition of DGAT2; membrane prep of Sf-9 cells expressing hDGAT2; 25 μM diolein, 10 μM oleoyl-CoA; room temperature; triolein by LC/MS/MS
MEASUREMENT_NAME: log10(IC50) (log10 of the value in nM)

1) COc1cccc(-c2ccc(CNC(=O)Cc3ccccc3C(F)(F)F)c3cnccc23)c1 | 3.24
2) COc1cccc(-c2ccc(CNC(=O)C3CC3c3ccccc3)c3ccccc23)c1 (centres unmarked) | 2.31
3) COc1cccc(-c2ccc(CNC(=O)Nc3ccc(OC(F)(F)F)cc3)c3cnccc23)c1 | 2.97
4) COC(=O)c1ccccc1NC(=O)NCc1ccc(-c2cccc(OC)c2)c2ccncc12 | 3.05
5) COc1cccc(-c2ccc(CNC(=O)c3cc(C)n(Cc4ccccc4)n3)c3cnccc23)c1 | 2.97
6) COc1cccc(-c2ccc(CNC(=O)C(F)c3ccc(C(F)(F)F)cc3)c3cnccc23)c1 (centres unmarked) | 3.37
7) COc1cccc(-c2ccc(CNC(=O)Cc3nnc(-c4ccccc4)[nH]3)c3cnccc23)c1 | 2.68
8) COc1cccc(-c2ccc(CNC(=O)c3cc(C4CC4)on3)c3cnccc23)c1 | 3.31

###

Molecular target: hDGAT2 (Homo sapiens (Human), UniProt Q96PD7)
Experiment: DGAT2 enzymatic activity assay (triolein formation, LC/MS/MS)
Conditions: read-out: IC50 values for inhibition of DGAT2; membrane prep of Sf-9 cells expressing hDGAT2; 25 μM diolein, 10 μM oleoyl-CoA; room temperature; triolein by LC/MS/MS
MEASUREMENT_NAME: IC50 (µM)

1) COc1cccc(-c2ccc(CNC(=O)c3coc(-c4ccccc4)n3)c3cnccc23)c1 | 2.33
2) NC(=O)c1cccc(-c2ccc(CNC(=O)C3CC3c3ccccc3)c3cnccc23)c1 (stereo not shown) | 6.27
3) COc1cccc(-c2ccc(CNC(=O)Cc3cccc(S(C)(=O)=O)c3)c3cnccc23)c1 | 1.64
4) COc1cccc(-c2ccc(CNC(=O)c3cnn(-c4ccccc4)c3C(F)(F)F)c3cnccc23)c1 | 3.94

The measurements presented in this section are drawn from patent US9828369B2.
